Values were extracted from paper PMC7573564.

Give measured pEC50 for each item. Keep answers brief.
measurement-target: Olfr57 (Mus musculus)
Sequence (Q8VGU7 entry or part of it): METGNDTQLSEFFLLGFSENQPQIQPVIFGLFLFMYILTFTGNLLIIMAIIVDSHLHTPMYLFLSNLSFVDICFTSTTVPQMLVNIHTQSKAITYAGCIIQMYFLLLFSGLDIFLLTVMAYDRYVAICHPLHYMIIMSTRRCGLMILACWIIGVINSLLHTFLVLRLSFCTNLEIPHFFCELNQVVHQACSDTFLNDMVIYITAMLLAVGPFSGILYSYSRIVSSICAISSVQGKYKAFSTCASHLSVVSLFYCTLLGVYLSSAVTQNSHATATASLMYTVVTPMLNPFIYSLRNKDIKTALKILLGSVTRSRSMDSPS
procedure-details: cAMP-dependent dual luciferase reporter assay, Olfr57 expressed in HEK293T cells
applied-conditions: HEK293T cells expressing Olfr57, Firefly:Renilla ratio, 4 h, dose response of at least 6 concentrations; read-out: EC50 for activation of Olfr57
Answers are plain numbers, as −log10 of the molar value.

molecule: CC12CCC(C1)C(C)(C)C2=O [(1R)-(-)-fenchone]
pEC50: 4.03

molecule: CC12CCC(C1)C(C)(C)C2O (stereo not shown) [fenchyl alcohol]
pEC50: 4.35

molecule: CC1(C)C2CCC1(C)C(O)C2 (stereo not shown) [borneol]
pEC50: 3.62

Reported pEC50, molecule CC12CCC(CC1)C(C)(C)O2 [eucalyptol] : ____
3.63
